Test system: Mus musculus
protocol-description: Neurotoxicity in ip dosed Swiss albino mouse assessed as minimum dose required to cause impair in motor coordination after 0.5 hrs by rotarod test
Assay type: toxicity, organism-based
condition-notes: in vivo

compound | Activity, mg/kg
C/C(=N\NC(=O)Nc1cccc2ccccc12)c1ccc(C)cc1 | 300
O=C(N/N=C/c1ccccc1O)Nc1cccc2ccccc12 | 300
C/C(=N\NC(=O)Nc1cccc2ccccc12)c1ccc(Cl)cc1 | 300
COc1ccc(/C=N/NC(=O)Nc2cccc3ccccc23)cc1 | 300
O=C(N/N=C/c1ccc(Cl)cc1)Nc1cccc2ccccc12 | 300
O=C1NC(=O)C(c2ccccc2)(c2ccccc2)N1 | 100
O=C(N/N=C/c1ccc(O)cc1)Nc1cccc2ccccc12 | 100
COc1ccc(OC)c(/C=N/NC(=O)Nc2cccc3ccccc23)c1 | 300
O=C(N/N=C/c1ccc(Br)cc1)Nc1cccc2ccccc12 | 300
O=C(N/N=C/c1ccccc1[N+](=O)[O-])Nc1cccc2ccccc12 | 300
C/C(=N\NC(=O)Nc1cccc2ccccc12)c1ccccc1 | 100
O=C(N/N=C/c1ccccc1)Nc1cccc2ccccc12 | 100
NC(=O)N1c2ccccc2C=Cc2ccccc21 [CARBAMAZEPINE] | 100
CN(C)c1ccc(/C=N/NC(=O)Nc2cccc3ccccc23)cc1 | 100
COc1cc(/C=N/NC(=O)Nc2cccc3ccccc23)ccc1O | 100
COc1cccc(/C=N/NC(=O)Nc2cccc3ccccc23)c1 | 100
COc1cc(/C=N/NC(=O)Nc2cccc3ccccc23)cc(OC)c1OC | 300

====

Recorded minimal effective dose for the following compounds
System: Mus musculus
protocol-description: Anticonvulsant activity against subcutaneous pentylenetetrazole-induced seizures in ip dosed Swiss albino mouse assessed as minimum effective dose after 0.5 hrs
Format: functional
condition-notes: read-out: MED

structure-string | minimal effective dose / mg/kg
C/C(=N\NC(=O)Nc1cccc2ccccc12)c1ccc(C)cc1 | 300
C/C(=N\NC(=O)Nc1cccc2ccccc12)c1ccc(Cl)cc1 | 300
O=C(N/N=C/c1ccc(F)cc1)Nc1cccc2ccccc12 | 300
O=C(N/N=C/c1ccc(Cl)cc1Cl)Nc1cccc2ccccc12 | 300
O=C(N/N=C/c1ccc(Br)cc1)Nc1cccc2ccccc12 | 300
COc1cc(/C=N/NC(=O)Nc2cccc3ccccc23)cc(OC)c1OC | 100

====

Test system: Mus musculus
protocol-description: Neurotoxicity in ip dosed Swiss albino mouse assessed as minimum dose required to cause impair in motor coordination after 4 hrs by rotarod test
Format: toxicity, organism-based
condition-notes: in vivo

molecule | target-or-test-system | Activity, mg/kg
O=C1NC(=O)C(c2ccccc2)(c2ccccc2)N1 [PHENYTOIN] | Mus musculus | 100
COc1cc(/C=N/NC(=O)Nc2cccc3ccccc23)cc(OC)c1OC | Mus musculus | 300
O=C(N/N=C/c1ccc([N+](=O)[O-])cc1)Nc1cccc2ccccc12 | Mus musculus | 300
